test system: RXRa DBDmut IVT, anti-RXR (DBD mutation: RXRa K156A/R161A, NR concentration 90 nM); assay: PBM binding z-score (relative to random genomic background probes); higher = stronger binding; sequences stand for … in GC…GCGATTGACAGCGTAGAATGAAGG
Each entry belongs to exactly one class, chosen by where its PBM binding z-score falls: low group = under 0.2, middle group = from 0.2 up to 0.7, high group = 0.7 and over

Sequence Chain	Classification
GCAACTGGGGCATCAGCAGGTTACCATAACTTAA	middle group
CCTGCTAGGTCAATGGTCAGCTAGAGCAGCTCGC	high group
AAAGACAGGTGAGTGAAGGTAACTCAGCTGGACG	low group
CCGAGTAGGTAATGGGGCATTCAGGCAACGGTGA	low group
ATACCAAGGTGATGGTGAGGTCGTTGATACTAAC	middle group

[ask] Which bin should I file `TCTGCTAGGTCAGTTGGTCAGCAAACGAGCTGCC` under?
[reply] middle group

[ask] Which bin should I file `ATCTCTAGCTAAGACTCAGTTCAGTGAAGAACGC` under?
[reply] middle group

[ask] Which bin should I file `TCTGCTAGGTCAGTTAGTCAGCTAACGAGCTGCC` under?
[reply] middle group

====

Consider the following sequences; for each one, report its PBM binding z-score.
system: LXRa:RXRa (NR concentration 270 nM, RXRa partner concentration 90 nM); assay: PBM binding z-score (relative to random genomic background probes); higher = stronger binding; sequences stand for … in GC…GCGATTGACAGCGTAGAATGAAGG
Numbers only.

Hi! Can you tell me PBM binding z-score for each of these sequences?
1. TTACCAAGGTTAAGGTCGTTGATCCCTCTGTAGA
2. AGTCAAAGTTCACTAGGTAAAGTAAGATTCAGCT
3. CAAATTAGGTCACAGAGGTCAAAGTCCGTGCGTA
4. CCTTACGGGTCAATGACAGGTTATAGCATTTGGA

[reply]
1. 4.15
2. 4.89
3. 6.57
4. 4.45

====

test system: LXRb:RXRa (NR concentration 270 nM, RXRa partner concentration 90 nM); test: PBM binding z-score (relative to random genomic background probes); higher = stronger binding; sequences stand for … in GC…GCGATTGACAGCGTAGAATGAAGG
Consider the following sequences; for each one, report its PBM binding z-score.
Give bare numbers.

Some entries whose results are on file:
Sequence Chain	Measurement Target	PBM binding z-score
CCTGCTAGGTCAATGGTCAGGTAAAGCAGCTCGC	LXRb:RXRa (NR concentration 270 nM, RXRa partner concentration 90 nM)	1.46
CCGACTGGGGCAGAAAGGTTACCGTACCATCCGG	LXRb:RXRa (NR concentration 270 nM, RXRa partner concentration 90 nM)	1.01
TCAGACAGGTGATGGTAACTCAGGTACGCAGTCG	LXRb:RXRa (NR concentration 270 nM, RXRa partner concentration 90 nM)	0.648
CCTACTGGGCCATCAGGTCCTTGATATCAACGTT	LXRb:RXRa (NR concentration 270 nM, RXRa partner concentration 90 nM)	-0.452

Lab note: next sequence to report on.
[ask] Retrieve PBM binding z-score measured for `ATCTCTAGGTAAAGATAGTTGAGTGAATGCAAAT` and print it.
[reply] 0.23

====

Consider the following sequences; for each one, report its PBM binding z-score.
test system: RARa homodimer (NR concentration 270 nM); test: PBM binding z-score (relative to random genomic background probes); higher = stronger binding; sequences stand for … in GC…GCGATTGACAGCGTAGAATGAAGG

Sequence Chain	Reading
CCTACTGGTCCATTCAGAGGTCATTGATCATATG	1.99
GGAACGAGGACAAAGTTGATAGCATCTGTCGACG	0.0714
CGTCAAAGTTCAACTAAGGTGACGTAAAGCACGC	1.76
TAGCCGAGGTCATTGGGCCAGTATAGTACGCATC	0.0596
ACTCGGAGGACAAAGCTCAGAGCTACGCCAGTGA	-0.639
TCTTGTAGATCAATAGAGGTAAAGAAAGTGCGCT	-0.142
CCTAATAGTTGACCATAAGGGCAACCGAAGCTCG	1.46
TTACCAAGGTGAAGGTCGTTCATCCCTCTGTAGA	-0.144
TTACCAAGGTTAGCTGAGGTCGTTGATCCAACTC	-0.023
CTCGAAAGGTCCTGCTCAGGTGAGTATACCAAAC	-0.103

Hi! Can you tell me PBM binding z-score for each of these sequences?
1. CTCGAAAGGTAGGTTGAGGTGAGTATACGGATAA
2. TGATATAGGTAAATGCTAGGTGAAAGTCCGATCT
3. ACTATCAGTTGACTTAGGGCAACCGATACGACGC
4. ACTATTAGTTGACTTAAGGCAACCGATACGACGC
5. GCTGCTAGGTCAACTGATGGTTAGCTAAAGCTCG

[reply]
[-0.0281, 1.15, 0.08, 0.466, -0.0413]

Hi! Can you tell me PBM binding z-score for each of these sequences?
1. ACTAGTTGGTCAGATGAGGTCACACACAATTCGG
2. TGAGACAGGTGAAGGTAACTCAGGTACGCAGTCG
3. TGAATGAGGTAAAAGATCAGGGAACGTGGCGTCG
4. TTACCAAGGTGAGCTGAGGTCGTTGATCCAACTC
5. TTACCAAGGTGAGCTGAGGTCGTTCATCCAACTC
6. CCAGACAGGTGAGAAGGTAACTCTGCCTCGATTA
7. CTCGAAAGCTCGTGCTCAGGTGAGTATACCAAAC

[reply]
2.3
-0.0291
-0.524
-1.01
-0.552
-0.197
-1.18

Hi! Can you tell me PBM binding z-score for each of these sequences?
1. CAAACTAGGTCACCGGAAGATCAAAGTCCGCATG
2. ATCTCTAGGTAAACTTCAGTGAAAGATCGATAGA
3. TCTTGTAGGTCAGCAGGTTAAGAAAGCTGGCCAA
4. CGTCCAAGGTCAATGCTAGGTCATTGAAAGCATT
5. ACTATTAGTTGAATTAGGGCAACCGATACGACGC
6. CAGCCTAGGTCAGGGCAAGTATAGGAGGAACGTT

[reply]
[1.83, 1.42, 0.787, 1.7, 1.47, -0.273]

[ask] Retrieve PBM binding z-score measured for `ATATGTAGGTTAGATCCGGGTCATTCAGGCTATG` and print it.
[reply] 1.01
